System: 997726-040-R-J2-PDC tumor spheroids, viability;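 also: spheroids exposed to compounds for seven days before readout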
Assay: Anticancer human tumor 997726-040-R-J2-PDC patient-derived squamous cell lung carcinoma cell line growth inhibition [PI3K]; active = viability on the fitted dose curve at most 10% of control; inactive = the rest
Conditions: second compound 1 µM; first compound 0.1 µM; spheroids with HUVEC and MSC
Description: Combinatorial screen of targeted agents with the PI3K inhibitors inavolisib, alpelisib, duvelisib, and copanlisib in multi-cell type tumor spheroids A high-throughput screen of multi-cell type tumor spheroids was designed to identify active combinations of targeted small molecules and PI3K pathway inhibitors. […] Compounds. […] If the clinical Cmax for an agent had not been determined, the highest concentration tested was 10 microM. […]
Outcome codes: active, inactive

Molecule | Category
Cn1nccc1Nc1nccc(-c2ccn(C(CO)c3ccc(Cl)c(F)c3)c(=O)c2)n1 (stereo unspecified) + COc1c(OCCCN2CCOCC2)ccc2c3n(c(=NC(=O)c4cnc(N)nc4)nc12)CCN3 | active
C[C@@H](NC(=O)c1ncnc(N)c1Cl)c1ncc(C(=O)Nc2cc(C(F)(F)F)c(Cl)cn2)s1 + COc1c(OCCCN2CCOCC2)ccc2c3n(c(=NC(=O)c4cnc(N)nc4)nc12)CCN3 | active
CC(Cn1ccc(-c2ccc(C#N)c(Cl)c2)n1)NC(=O)c1cc(C(C)O)[nH]n1 (stereo unspecified) + COc1c(OCCCN2CCOCC2)ccc2c3n(c(=NC(=O)c4cnc(N)nc4)nc12)CCN3 | active
Cn1nccc1Nc1nccc(-c2ccn(C(CO)c3ccc(Cl)c(F)c3)c(=O)c2)n1 (stereo unspecified) + Cc1nc(NC(=O)N2CCCC2C(N)=O)sc1-c1ccnc(C(C)(C)C(F)(F)F)c1 | inactive
CC(C)NCC(C(=O)N1CCN(c2ncnc3c2C(C)CC3O)CC1)c1ccc(Cl)cc1 (stereo unspecified) + CC(Nc1ncnc2nc[nH]c12)c1cc2cccc(Cl)c2c(=O)n1-c1ccccc1 | inactive
CCN1CCN(Cc2ccc(Nc3ncc(F)c(-c4cc(F)c5nc(C)n(C(C)C)c5c4)n3)nc2)CC1 + Cc1nc(NC(=O)N2CCCC2C(N)=O)sc1-c1ccnc(C(C)(C)C(F)(F)F)c1 | inactive

The measurements presented in this section are drawn from PubChem BioAssay AID1963964.
